Provenance of the data: ChEMBL document CHEMBL3085673

Target: Muscarinic acetylcholine receptor M3 (Homo sapiens)
Sequence (P20309 whole entry): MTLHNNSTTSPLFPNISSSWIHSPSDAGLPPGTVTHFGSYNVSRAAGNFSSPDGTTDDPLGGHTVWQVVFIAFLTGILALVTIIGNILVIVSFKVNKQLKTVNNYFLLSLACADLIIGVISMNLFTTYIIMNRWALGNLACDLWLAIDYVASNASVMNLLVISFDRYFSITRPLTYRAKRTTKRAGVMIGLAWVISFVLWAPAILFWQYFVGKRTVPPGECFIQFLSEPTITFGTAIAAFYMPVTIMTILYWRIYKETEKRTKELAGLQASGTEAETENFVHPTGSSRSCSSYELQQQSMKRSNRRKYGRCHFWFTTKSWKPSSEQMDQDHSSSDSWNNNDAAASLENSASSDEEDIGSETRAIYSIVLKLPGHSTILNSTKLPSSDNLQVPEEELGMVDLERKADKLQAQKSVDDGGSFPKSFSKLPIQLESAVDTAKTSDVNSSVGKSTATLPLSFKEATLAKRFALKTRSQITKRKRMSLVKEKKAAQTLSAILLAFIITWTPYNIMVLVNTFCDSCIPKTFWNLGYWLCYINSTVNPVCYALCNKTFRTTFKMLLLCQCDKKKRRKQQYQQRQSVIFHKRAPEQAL
Assay: Displacement of [3H]NMS from recombinant human M3 receptor expressed in CHO-K1 cells after 16 hrs by SPA method
Reported IC50 is given for each of the following compounds.
Report the value in nM with no unit label.

# COMPOUND STRING, PROPERTY NAME, QUANTITATIVE READOUT
records = [
    ("CC(C)(C)c1cc(NC(=O)C[N+]23CCC(CC2)[C@@H](OC(=O)C2(C4=CC=CC4)CCCCCC2)C3)no1", "IC50", 10),
    ("Cc1ccc(CC[N+]23CCC(CC2)[C@@H](OC(=O)C2(C4=CC=CC4)CCCCCC2)C3)s1", "IC50", 0.0631),
]

Ask: Can you share its IC50? I mean this compound: O=C(O[C@H]1C[N+]2(Cc3nc(-c4ccccc4)no3)CCC1CC2)C1(C2=CC=CC2)CCCCCC1
Result: 0.158

Ask: What do we get for O=C(O[C@H]1C[N+]2(Cc3csc(-c4ccccc4)n3)CCC1CC2)C1(C2=CC=CC2)CCCCCC1 ?
Result: 25.1

Ask: What do we get for O=C(C[N+]12CCC(CC1)[C@@H](OC(=O)C1(C3=CC=CC3)CCCCCC1)C2)Nc1cccc(C(F)(F)F)n1 ?
Result: 2.51

----------
Test system: Cavia porcellus
Assay: Inhibition of methacholine-induced bronchoconstriction in Dunkin-Hartley guinea pig administered via intratracheal/intranasal after 48 hrs relative to control
Assay type: functional
PROPERTY NAME: inhibition (INH) (%)
Report the value in % with no unit label.

Ask: Can you share its inhibition (INH)? I mean this compound: O=C(O[C@H]1C[N+]2(Cc3cc(-c4ccccc4)no3)CCC1CC2)C1(C2=CC=CC2)CCCCCC1
Result: 0

Ask: What do we get for O=C(C[N+]12CCC(CC1)[C@@H](OC(=O)C1(C3=CC=CC3)CCCCCC1)C2)Nc1ccccn1 ?
Result: 84

Ask: What do we get for C[N+]1(C)[C@@H]2C[C@@H](OC(=O)C(O)(c3cccs3)c3cccs3)C[C@H]1[C@@H]1O[C@@H]12.O.[Br-] [TIOTROPIUM BROMIDE] ?
Result: 69

Ask: What do we get for O=C(O[C@H]1C[N+]2(Cc3nc(-c4ccccc4)no3)CCC1CC2)C1(C2=CC=CC2)CCCCCC1 ?
Result: 0

Ask: What do we get for O=C(O[C@H]1C[N+]2(Cc3nnc(-c4ccccc4)o3)CCC1CC2)C1(C2=CC=CC2)CCCCCC1 ?
Result: 0

Ask: What do we get for O=C(C[N+]12CCC(CC1)[C@@H](OC(=O)C1(C3=CC=CC3)CCCCCC1)C2)Nc1cnccn1 ?
Result: 73

----------
Assay: Intrinsic clearance in human liver microsomes
Format: ADME
Conditions: read-out: CLH
Would you mind labelling by microsomal CLint? At or over 60 µL/min/mg is condition met, under is condition not met.

# COMPOUND STRING, QUALITATIVE LABEL
data = [
    ("Cc1cnc(NC(=O)C[N+]23CCC(CC2)[C@@H](OC(=O)C2(C4=CC=CC4)CCCCCC2)C3)cn1", "condition not met"),
]

Ask: In plain terms: is recorded microsomal CLint at least 60 µL/min/mg for O=C(O[C@H]1C[N+]2(Cc3ccc(F)c(F)c3)CCC1CC2)C1(C2=CC=CC2)CCCCCC1 ?
Result: condition not met

----------
Reported microsomal CLint is given for each of the following compounds.
Test: Intrinsic clearance in human liver microsomes
Assay type: ADME
Conditions: read-out: CLH
Report the value in µL/min/mg with no unit label.

# COMPOUND STRING, MEASUREMENT UNIT, microsomal CLint
records = [
    ("O=C(O[C@H]1C[N+]2(Cc3nnc(-c4ccccc4)o3)CCC1CC2)C1(C2=CC=CC2)CCCCCC1", "µL/min/mg", 97),
    ("O=C(C[N+]12CCC(CC1)[C@@H](OC(=O)C1(C3=CC=CC3)CCCCCC1)C2)Nc1ccc(C(F)(F)F)nc1", "µL/min/mg", 5),
    ("O=C(O[C@H]1C[N+]2(CCCOc3ccccc3)CCC1CC2)C1(C2=CC=CC2)CCCCCC1", "µL/min/mg", 75),
    ("O=C(O[C@H]1C[N+]2(CCc3ccccc3)CCC1CC2)C1(C2=CC=CC2)CCCCCC1", "µL/min/mg", 105),
    ("O=C(C[N+]12CCC(CC1)[C@@H](OC(=O)C1(C3=CC=CC3)CCCCCC1)C2)NCCCNC(=O)c1ccccn1", "µL/min/mg", 101),
]

Ask: Can you share its microsomal CLint? I mean this compound: O=C(C[N+]12CCC(CC1)[C@@H](OC(=O)C1(C3=CC=CC3)CCCCCC1)C2)Nc1ccon1
Result: 150

Ask: What do we get for O=C(C[N+]12CCC(CC1)[C@@H](OC(=O)C1(C3=CC=CC3)CCCCCC1)C2)Nc1cc[nH]n1 ?
Result: 37

Ask: What do we get for Cc1ccc(CCC[N+]23CCC(CC2)[C@@H](OC(=O)C2(C4=CC=CC4)CCCCCC2)C3)cn1 ?
Result: 77

Ask: What do we get for O=C(O[C@H]1C[N+]2(CCc3cccc(Cl)c3)CCC1CC2)C1(C2=CC=CC2)CCCCCC1 ?
Result: 72

Ask: What do we get for O=C(O[C@H]1C[N+]2(Cc3nc(-c4ccccc4)no3)CCC1CC2)C1(C2=CC=CC2)CCCCCC1 ?
Result: 102

----------
Reported EC50 is given for each of the following compounds.
System: Cavia porcellus
Test: Toxicity in guinea pig assessed as reduction of pilocarpine-induced salivation administered via intranasal administered for 4 hrs followed by pilocarpine challenge measured every 5 mins for 15 mins
Type: organism-based

# COMPOUND, RESULT
records = [
    ("O=C(C[N+]12CCC(CC1)[C@@H](OC(=O)C1(C3=CC=CC3)CCCCCC1)C2)Nc1cnccn1", "> 10 µg/kg"),
]

# evaluate next
Ask: Can you share its EC50? I mean this compound: O=C(C[N+]12CCC(CC1)[C@@H](OC(=O)C1(C3=CC=CC3)CCCCCC1)C2)Nc1ccc(Cl)nn1
Result: > 30 µg/kg

----------
Experiment: Plasma protein binding in human
Assay type: ADME, cell-free
Conditions: read-out: PPB (converted)
Would you mind labelling by fraction unbound? At or over 0.06 is true (1), under is false (0).

# COMPOUND STRING, QUALITATIVE LABEL
records = [
    ("C[N+]1(C)CCC(OC(=O)C2(c3ccccc3)CCCCCC2)CC1", "true (1)"),
    ("Cc1ccnc(NC(=O)C[N+]23CCC(CC2)[C@@H](OC(=O)C2(C4=CC=CC4)CCCCCC2)C3)c1", "false (0)"),
    ("O=C(C[N+]12CCC(CC1)[C@@H](OC(=O)C1(C3=CC=CC3)CCCCCC1)C2)Nc1ccon1", "true (1)"),
    ("Cc1ccc(CCC[N+]23CCC(CC2)[C@@H](OC(=O)C2(C4=CC=CC4)CCCCCC2)C3)c(C)n1", "false (0)"),
    ("Cc1ccc(CC[N+]23CCC(CC2)[C@@H](OC(=O)C2(C4=CC=CC4)CCCCCC2)C3)s1", "false (0)"),
    ("O=C(O[C@H]1C[N+]2(CCc3cccc(Cl)c3)CCC1CC2)C1(C2=CC=CC2)CCCCCC1", "false (0)"),
]

Ask: In plain terms: is recorded fraction unbound at least 0.06 for O=C(C[N+]12CCC(CC1)[C@@H](OC(=O)C1(C3=CC=CC3)CCCCCC1)C2)Nc1ncco1 ?
Result: true (1)

Ask: What do we get for Cc1ccc(NC(=O)C[N+]23CCC(CC2)[C@@H](OC(=O)C2(C4=CC=CC4)CCCCCC2)C3)nn1 ?
Result: true (1)

Ask: What do we get for Cc1cc(CCC[N+]23CCC(CC2)[C@@H](OC(=O)C2(C4=CC=CC4)CCCCCC2)C3)ccn1 ?
Result: false (0)

Ask: What do we get for O=C(C[N+]12CCC(CC1)[C@@H](OC(=O)C1(C3=CC=CC3)CCCCCC1)C2)Nc1ccccn1 ?
Result: false (0)

Ask: What do we get for O=C(C[N+]12CCC(CC1)[C@@H](OC(=O)C1(C3=CC=CC3)CCCCCC1)C2)Nc1cncc(Cl)n1 ?
Result: false (0)

Ask: What do we get for O=C(C[N+]12CCC(CC1)[C@@H](OC(=O)C1(C3=CC=CC3)CCCCCC1)C2)Nc1ccncn1 ?
Result: true (1)

Ask: What do we get for O=C(C[N+]12CCC(CC1)[C@@H](OC(=O)C1(C3=CC=CC3)CCCCCC1)C2)Nc1cccnn1 ?
Result: true (1)

Ask: What do we get for O=C(C[N+]12CCC(CC1)[C@@H](OC(=O)C1(C3=CC=CC3)CCCCCC1)C2)Nc1ccccc1 ?
Result: false (0)

Ask: What do we get for O=C(C[N+]12CCC(CC1)[C@@H](OC(=O)C1(C3=CC=CC3)CCCCCC1)C2)Nc1cccnc1 ?
Result: false (0)

Ask: What do we get for O=C(O[C@H]1C[N+]2(Cc3nc(-c4ccccc4)no3)CCC1CC2)C1(C2=CC=CC2)CCCCCC1 ?
Result: false (0)

Ask: What do we get for Cc1ccc(CCC[N+]23CCC(CC2)[C@@H](OC(=O)C2(C4=CC=CC4)CCCCCC2)C3)cn1 ?
Result: false (0)

Ask: What do we get for O=C(O[C@H]1C[N+]2(CCCOc3ccccc3)CCC1CC2)C1(C2=CC=CC2)CCCCCC1 ?
Result: true (1)

Ask: What do we get for O=C(C[N+]12CCC(CC1)[C@@H](OC(=O)C1(C3=CC=CC3)CCCCCC1)C2)Nc1cccc(C(F)(F)F)n1 ?
Result: false (0)

Ask: What do we get for O=C(O[C@H]1C[N+]2(Cc3cc(-c4ccccc4)no3)CCC1CC2)C1(C2=CC=CC2)CCCCCC1 ?
Result: false (0)

Ask: What do we get for O=C(C[N+]12CCC(CC1)[C@@H](OC(=O)C1(C3=CC=CC3)CCCCCC1)C2)Nc1ccc(F)cn1 ?
Result: false (0)

Ask: What do we get for O=C(C[N+]12CCC(CC1)[C@@H](OC(=O)C1(C3=CC=CC3)CCCCCC1)C2)Nc1ccncc1 ?
Result: false (0)

Ask: What do we get for O=C(O[C@H]1C[N+]2(CCCc3ccncc3)CCC1CC2)C1(C2=CC=CC2)CCCCCC1 ?
Result: true (1)

Ask: What do we get for O=C(O[C@H]1C[N+]2(Cc3nc4ccccc4o3)CCC1CC2)C1(C2=CC=CC2)CCCCCC1 ?
Result: false (0)

Ask: What do we get for Cc1cnc(NC(=O)C[N+]23CCC(CC2)[C@@H](OC(=O)C2(C4=CC=CC4)CCCCCC2)C3)cn1 ?
Result: false (0)

Ask: What do we get for Cc1cc(NC(=O)C[N+]23CCC(CC2)[C@@H](OC(=O)C2(C4=CC=CC4)CCCCCC2)C3)ncn1 ?
Result: true (1)

Ask: What do we get for O=C(O[C@H]1C[N+]2(CCOc3ccccc3)CCC1CC2)C1(C2=CC=CC2)CCCCCC1 ?
Result: false (0)

Ask: What do we get for O=C(C[N+]12CCC(CC1)[C@@H](OC(=O)C1(C3=CC=CC3)CCCCCC1)C2)Nc1ccc(Cl)nn1 ?
Result: false (0)
